assayed system: UniProtKB P0DTD1
experiment: biochemical
condition parameters: ReFRAME hits; >5e-6 = not potent enough to determine an IC50; read-out: M^pro IC50
Reported values of IC50 for individual entries
quantity name: IC50

compound: CCC[C@@H](NC(=O)N1C(=O)C(CC)(CC)[C@@H]1Oc1ccc(CC(=O)O)cc1)c1ccc(C)cc1 [L 680833]
assayed system: UniProtKB P0DTD1
endpoint value: > 5 µM

compound: O=C(NC1CC1)C(=O)C(Cc1ccccc1)NC(=O)C1CCC(=O)N1Cc1ccccc1 (centres unmarked) [Compound 2, ABT-957, reference compound]
assayed system: UniProtKB P0DTD1
endpoint value: > 5 µM

compound: COc1ccc(-c2ccc(OCc3cc(C(=O)[N-]S(=O)(=O)c4ccccc4C)oc3C)cc2)nc1.[Na+] [BGC-20-1531]
assayed system: UniProtKB P0DTD1
endpoint value: > 5 µM

compound: Cl.Cl.Cl.Cl.N=C(N)NCCCCC(=O)Nc1cc(C(F)(F)F)cc(NC(=O)c2cc(C(=O)Nc3cc(C(F)(F)F)cc(NC(=O)CCCCNC(=N)N)c3O[C@@H]3CCNC3)ncn2)c1O[C@@H]1CCNC1 [PMX-30063]
assayed system: UniProtKB P0DTD1
endpoint value: > 5 µM

compound: CC(=O)Oc1ccccc1C(=O)OC1OC(=O)c2ccccc21 (centres unmarked) [talosalate]
assayed system: UniProtKB P0DTD1
endpoint value: 4 µM

compound: O=C(O)c1cccc(C[C@@H]2COc3ccc(OCc4nc5cc(F)ccc5s4)cc3[C@@H]2O)c1 [(+)-CP-85958]
assayed system: UniProtKB P0DTD1
endpoint value: 2 µM

compound: COc1ccc(/C=C/CCCCOc2ccc(C(=O)c3cccc(C(=O)O)c3)cc2CCC(=O)O)cc1 [LY 223982]
assayed system: UniProtKB P0DTD1
endpoint value: > 5 µM

compound: CN(C/C=C/C#CC(C)(C)C)Cc1cccc2c(F)cc(F)cc12 [SDZ-880-540]
assayed system: UniProtKB P0DTD1
endpoint value: > 5 µM

* * *

assayed system: SARS-CoV-2 PL^pro (Severe acute respiratory syndrome coronavirus 2)
experiment: biochemical
condition parameters: ReFRAME hits, 10 µM
quantity name: PL^pro % inhibition at 10 µM (%)

compound: CN(C/C=C/C#CC(C)(C)C)Cc1cccc2c(F)cc(F)cc12 [SDZ-880-540]
assayed system: SARS-CoV-2 PL^pro (Severe acute respiratory syndrome coronavirus 2)
quantity name: PL^pro % inhibition at 10 µM
endpoint value: 15

compound: CC(=O)Oc1ccccc1C(=O)OC1OC(=O)c2ccccc21 (stereo not drawn) [talosalate]
assayed system: SARS-CoV-2 PL^pro (Severe acute respiratory syndrome coronavirus 2)
quantity name: PL^pro % inhibition at 10 µM
endpoint value: 13

compound: Cl.Cl.Cl.Cl.N=C(N)NCCCCC(=O)Nc1cc(C(F)(F)F)cc(NC(=O)c2cc(C(=O)Nc3cc(C(F)(F)F)cc(NC(=O)CCCCNC(=N)N)c3O[C@@H]3CCNC3)ncn2)c1O[C@@H]1CCNC1 [PMX-30063]
assayed system: SARS-CoV-2 PL^pro (Severe acute respiratory syndrome coronavirus 2)
quantity name: PL^pro % inhibition at 10 µM
endpoint value: 30

Origin of the recorded values: paper PMC8225628
